Positions of bridges follow the written chain, without caps; N, C: chain ends. Non-standard residues stand in square brackets, D forms with d. Residues, ends and D or L forms follow the SMILES beside them. Phe(4-CH2NHiPr) = CC(C)NCc1ccc(C[C@H](N)C(=O)O)cc1; NMeS = CN[C@@H](CO)C(=O)O
Let's go through some recorded IC50 values for Somatostatin receptor type 3 (Homo sapiens, UniProt P32745) together.

{"compound": "CC(C)NCc1ccc(C[C@@H]2NC(=O)[C@@H](Cc3c[nH]c4ccccc34)NC(=O)[C@H](Cc3ccccc3)NC(=O)[C@H](Cc3ccccc3)NC(=O)[C@H](CCCCN)NC(=O)[C@@H](N)CSSC[C@@H](C(=O)O)NC(=O)[C@H](CO)N(C)C(=O)[C@H]([C@@H](C)O)NC(=O)[C@H](Cc3ccccc3)NC(=O)[C@H]([C@@H](C)O)NC2=O)cc1 (H-CKFF[dW][Phe(4-CH2NHiPr)]TFT[NMeS]C-OH; disulfide 1-11)", "value-kind": "IC50", "val": "> 1 µM"}

Now for the compound whose IC50 we want.
Any idea what IC50 was measured for CC(C)NCc1ccc(C[C@@H]2NC(=O)[C@@H](Cc3ccc4ccccc4c3)NC(=O)[C@H](Cc3ccccc3)NC(=O)[C@H](Cc3ccccc3)NC(=O)[C@H](CCCCN)NC(=O)[C@@H](N)CSSC[C@@H](C(=O)O)NC(=O)[C@H](CO)NC(=O)[C@H]([C@@H](C)O)NC(=O)[C@H](Cc3ccccc3)NC(=O)[C@H]([C@@H](C)O)N(C)C2=O)cc1 ?
> 1 µM
